B1: LINE1-full (parent)
chain: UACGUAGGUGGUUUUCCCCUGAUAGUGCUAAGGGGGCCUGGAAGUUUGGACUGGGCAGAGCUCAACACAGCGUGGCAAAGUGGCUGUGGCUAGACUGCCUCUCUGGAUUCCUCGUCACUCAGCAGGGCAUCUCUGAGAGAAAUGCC

# Variants of: B1
# Assay name: self-cleavage, relative activity (ratio to wild type); higher = more cleavage; in vitro, sequencing; the parent is a self-cleaving ribozyme
Record form. Attribute: self-cleavage. Fill in for each entry.
The reply should be a number, written without any unit.

Entry A30G A124U , self-cleavage reported as 1.44

Entry A64G U102A , self-cleavage reported as 0.15

Entry C76U A107G , self-cleavage reported as 2.53

Entry U5C C19U , self-cleavage reported as 1

Entry U15C U102A , self-cleavage reported as 0.19

Entry A2G A65U , self-cleavage reported as 0.66

Entry G10A U29C , self-cleavage reported as 1.12

Entry U39A U100C , self-cleavage reported as 1.67

Entry G53U A57C , self-cleavage reported as 0.01

Entry G125A A129G , self-cleavage reported as 1.38

Entry U29C A30G , self-cleavage reported as 0.89

Entry U26A A50G , self-cleavage reported as 0.92

Entry `G86A` , self-cleavage reported as 0.08

Entry U5C A77G , self-cleavage reported as 1.49

Entry `C61A` , self-cleavage reported as 0.04

Entry U96C C101U , self-cleavage reported as 0.06

Entry U47C A129U , self-cleavage reported as 1.74

Entry G7A U112C , self-cleavage reported as 1.22

Entry A78G U119G , self-cleavage reported as 1.04

Entry C71U A121U , self-cleavage reported as 0.93

Entry A22U A30G , self-cleavage reported as 1.98

Entry C110A A141G , self-cleavage reported as 1.84
